method: solvent given as SMILES
conditions used: in Cc1ccccc1
Define the label as criterion met when absorption maximum is strictly less than 500 nm and as criterion not met in all remaining cases.

Known results for compounds:
CCN1c2ccc(/C=N/Nc3ccccn3)cc2Sc2cc(-c3ccc(OC)cc3)ccc21: criterion met
Cc1cccc(C2=CC3=C(c4c(C)cc(C)cc4C)c4cc(-c5cccc(C)c5)c(-c5cccc(C)c5)n4[B-](F)(F)[N+]3=C2c2cccc(C)c2)c1: criterion not met
N#Cc1ccc(N(c2ccc(C#N)cc2)c2ccc3c4cccc5c(N(c6ccc(C#N)cc6)c6ccc(C#N)cc6)ccc(c6cccc2c63)c54)cc1: criterion met
c1cc2c3c(cccc3c1)NC(c1ccc3ccc4cccc5ccc1c3c45)N2: criterion met
O=C1c2cc(-n3c4ccccc4c4ccccc43)ccc2S(=O)(=O)c2ccc(-n3c4ccccc4c4ccccc43)cc21: criterion met

Dear colleague, could you confirm whether absorption maximum of `CCCC1=Cc2nc1ccc1[nH]c(c3nc(ccc4[nH]c2cc4CCC)C(CCC)=C3)c(CN(C)C)c1CCC` falls below 500 nm? Thanks.
criterion not met
